molecular target: T1, Human PD-L1 Dimer (human, UniProt Q9NZQ7 19-239); experiment: SPR (Biacore), mAb captured, 25C
T1 construct: also called hPD-L1 dimer; hPD-L1-hFc
T1 sequence (Q9NZQ7 19-239): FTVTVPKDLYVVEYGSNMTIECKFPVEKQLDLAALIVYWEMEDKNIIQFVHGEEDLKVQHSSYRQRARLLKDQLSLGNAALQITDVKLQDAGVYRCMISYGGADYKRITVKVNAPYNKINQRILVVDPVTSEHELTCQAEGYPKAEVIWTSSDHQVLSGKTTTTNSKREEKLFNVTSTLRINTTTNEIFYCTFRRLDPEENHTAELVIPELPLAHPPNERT
pKd: −log10 of the molar value.
Label condition met when pKd is at or above 10; anything below gets condition not met.

>  <BINDER>
H2aM8323N (antibody, mouse IgG2, V domains shown, also called H2M8323N) VH: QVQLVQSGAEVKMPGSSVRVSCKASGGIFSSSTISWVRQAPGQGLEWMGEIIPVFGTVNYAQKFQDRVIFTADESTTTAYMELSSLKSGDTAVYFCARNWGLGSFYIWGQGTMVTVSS VL: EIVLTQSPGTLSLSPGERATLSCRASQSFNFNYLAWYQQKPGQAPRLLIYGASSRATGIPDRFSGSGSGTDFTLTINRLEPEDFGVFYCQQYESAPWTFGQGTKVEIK

>  <GROUP>
condition met

$$$$
>  <BINDER>
H2aM8314N (antibody, mouse IgG2, V domains shown, also called H2M8314N) VH: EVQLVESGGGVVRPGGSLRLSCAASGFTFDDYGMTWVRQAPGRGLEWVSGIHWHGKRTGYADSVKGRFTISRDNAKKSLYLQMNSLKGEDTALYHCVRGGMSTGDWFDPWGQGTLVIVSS VL: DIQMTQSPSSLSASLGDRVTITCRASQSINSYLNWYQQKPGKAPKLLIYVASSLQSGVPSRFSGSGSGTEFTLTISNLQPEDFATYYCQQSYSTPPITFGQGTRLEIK

>  <GROUP>
condition met

$$$$
>  <BINDER>
H2aM8317N (antibody, mouse IgG2, V domains shown, also called H2M8317N) VH: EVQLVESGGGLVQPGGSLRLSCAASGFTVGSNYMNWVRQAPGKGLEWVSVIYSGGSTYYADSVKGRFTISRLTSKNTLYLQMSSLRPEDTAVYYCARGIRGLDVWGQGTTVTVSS VL: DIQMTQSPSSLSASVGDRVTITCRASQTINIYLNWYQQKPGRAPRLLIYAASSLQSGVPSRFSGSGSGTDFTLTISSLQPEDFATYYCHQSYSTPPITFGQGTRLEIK

>  <GROUP>
condition not met

$$$$
>  <BINDER>
H2aM8321N (antibody, mouse IgG2, V domains shown, also called H2M8321N) VH: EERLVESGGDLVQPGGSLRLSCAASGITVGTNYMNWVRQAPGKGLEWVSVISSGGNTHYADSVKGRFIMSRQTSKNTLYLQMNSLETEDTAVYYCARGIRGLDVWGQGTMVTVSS VL: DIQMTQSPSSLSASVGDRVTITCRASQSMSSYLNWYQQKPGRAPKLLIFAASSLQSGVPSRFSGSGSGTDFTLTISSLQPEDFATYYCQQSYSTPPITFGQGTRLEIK

>  <GROUP>
condition not met

$$$$
>  <BINDER>
H1H9329P (antibody, human IgG1, V domains shown) VH: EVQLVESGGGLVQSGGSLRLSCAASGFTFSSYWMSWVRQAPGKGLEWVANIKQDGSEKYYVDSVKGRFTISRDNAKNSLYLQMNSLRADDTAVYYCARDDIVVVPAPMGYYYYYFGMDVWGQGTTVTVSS VL: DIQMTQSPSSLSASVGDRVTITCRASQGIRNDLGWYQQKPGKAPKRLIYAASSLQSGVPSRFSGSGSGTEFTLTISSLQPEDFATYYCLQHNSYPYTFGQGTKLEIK

>  <GROUP>
condition not met

$$$$
